- Assayed system: murine IDO1 (Mus musculus, UniProt P28776)
- Construct: expressed in transfected cells; host or cells: murine LLTC Lewis lung carcinoma cells
- Sequence (P28776 whole entry): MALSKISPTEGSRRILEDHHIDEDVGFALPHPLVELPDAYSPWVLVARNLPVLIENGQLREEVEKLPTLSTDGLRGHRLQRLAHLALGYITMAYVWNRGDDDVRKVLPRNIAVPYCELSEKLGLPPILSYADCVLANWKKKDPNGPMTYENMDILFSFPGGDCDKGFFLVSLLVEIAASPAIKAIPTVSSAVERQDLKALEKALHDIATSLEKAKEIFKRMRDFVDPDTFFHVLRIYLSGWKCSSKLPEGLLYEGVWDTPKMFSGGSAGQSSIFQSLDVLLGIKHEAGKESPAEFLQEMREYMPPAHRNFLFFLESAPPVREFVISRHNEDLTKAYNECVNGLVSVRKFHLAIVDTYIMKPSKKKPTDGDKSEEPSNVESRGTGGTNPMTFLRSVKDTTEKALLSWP
- Protocol text: LLTC-mIDO1 cell-based assay (kynurenine in supernatant)
As shown below, each of these compounds has a reported IC50 value.
Write the value in nM as a bare number.

Nc1nonc1/C(=N\O)Nc1ccc(F)c(Cl)c1 [INCB14934, reference compound]: 120

Task: Query for murine IDO1 (Mus musculus, UniProt P28776): what IC50 does the record show for c1ccc2c(c1)Nc1ccccc1O2 ?
Result: 3100

* * *

- Assayed system: human TDO2 (Homo sapiens)
- Construct: host or cells: murine GL261 glioma cells
- Sequence (P48775 whole entry): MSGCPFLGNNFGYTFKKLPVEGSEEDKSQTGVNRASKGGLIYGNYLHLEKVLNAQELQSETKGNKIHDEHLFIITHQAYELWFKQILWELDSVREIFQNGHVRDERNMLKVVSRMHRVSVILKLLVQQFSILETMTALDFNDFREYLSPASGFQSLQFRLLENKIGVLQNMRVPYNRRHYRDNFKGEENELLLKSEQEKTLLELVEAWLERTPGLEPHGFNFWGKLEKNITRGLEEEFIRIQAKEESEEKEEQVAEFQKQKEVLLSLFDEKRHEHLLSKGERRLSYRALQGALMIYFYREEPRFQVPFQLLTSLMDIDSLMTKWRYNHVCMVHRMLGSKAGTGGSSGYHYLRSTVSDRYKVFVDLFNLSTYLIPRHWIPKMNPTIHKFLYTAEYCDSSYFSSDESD
- Protocol text: GL261-hTDO2 cell-based assay (kynurenine in supernatant)
- Condition info: Table 2; GL261-hTDO2 IC50 / LLTC-hIDO1 IC50; ^−1 marks inverse ratio
Measured parameter: IC50 Ratio hTDO2/hIDO1
I only need the number, thanks.

For orientation, consider the following solved cases.
Nc1noc2nc(C(F)(F)F)ccc12 [SN37159]: 1.6
Cc1nc2onc(NC(=O)Nc3ccccc3)c2c(C)c1Cl [SN37705]: 85
Cc1nc2onc(N)c2c(C)c1Br [SN36494]: 47
Cc1nc2onc(N)c2c(C)c1Cl [Compound W-0019482]: 169
Cc1cc(Cl)nc2onc(N)c12 [SN37313]: 67

Task: So what does the record say about IC50 Ratio hTDO2/hIDO1 for COc1ccc2c(N)noc2n1 [SN37057] ?
Result: 1.2

Task: So what does the record say about IC50 Ratio hTDO2/hIDO1 for Nc1noc2nc(-c3ccccc3)ccc12 [SN36796] ?
Result: 8

* * *

- Assayed system: human IDO1 (Homo sapiens, UniProt P14902)
- Sequence (P14902 whole entry): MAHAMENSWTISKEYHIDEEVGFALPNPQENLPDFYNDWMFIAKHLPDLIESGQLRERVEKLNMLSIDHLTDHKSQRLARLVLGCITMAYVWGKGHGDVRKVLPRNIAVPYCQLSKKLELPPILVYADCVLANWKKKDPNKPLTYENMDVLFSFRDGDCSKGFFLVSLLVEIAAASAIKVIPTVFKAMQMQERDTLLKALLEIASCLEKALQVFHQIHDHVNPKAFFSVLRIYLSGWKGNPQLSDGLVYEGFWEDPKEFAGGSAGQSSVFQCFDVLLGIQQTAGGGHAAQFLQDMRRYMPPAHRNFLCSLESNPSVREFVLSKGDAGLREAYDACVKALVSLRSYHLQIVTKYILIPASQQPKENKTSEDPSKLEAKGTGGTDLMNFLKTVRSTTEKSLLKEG
- Protocol text: LLTC-hIDO1 cell-based assay (kynurenine in supernatant)
- Set-up: host or cells: murine LLTC Lewis lung carcinoma cells
- Condition info: Table 1; LLTC-hIDO1 cells, 24 h culture with compound; read-out: IC50 (µM) LLTC-hIDO1
- From the text: Transfected LLTC cells constitutively expressing human IDO1 (LLTC-hIDO1) were established as previously described, by transfecting wild-type LLTC cells with pAd/CMV/V5-DEST with cDNA for human IDO1 (Invitrogen, Carlsbad, CA, USA). LLTC-mIDO1 cells that constitutive express murine IDO1 were established by transfection of wild-type LLTC with cDNA for murine IDO1 (courtesy of Dr Benoit van den Eynde). […]
Values of IC50 strictly less than 6 µM map to Y, and values of at least 6 µM map to N.

Example cases with answers are listed next.
CC(C)N1CCC(=NNc2ccc(Cl)c(Cl)c2)CC1: Y
NC(=O)SCC(=O)Nc1ccc(F)cc1: N
C/C(=N\Nc1ccc(F)cc1F)c1cccs1: N
C/C(=N\Nc1ccc(F)cc1F)c1ccc(N2CCOCC2)cc1: N
Cc1ccc(C)c(C2=Nn3c(COc4ccccc4F)nnc3SC2C)c1 (centres unmarked): N

Task: Take the compound Cc1ccc(N/N=C2/CCCNC2=O)cc1 and say whether its IC50 is less than 6 µM.
Result: N

* * *

As shown below, each of these molecules has a reported IC50 value.
- Assayed system: human IDO1 (Homo sapiens, UniProt P14902)
- Protocol text: LLTC-hIDO1 cell-based assay (kynurenine in supernatant)
- Set-up: host or cells: murine LLTC Lewis lung carcinoma cells
- Condition info: Table 1; LLTC-hIDO1 cells, 24 h culture with compound; read-out: IC50 (µM) LLTC-hIDO1
Write the value in µM as a bare number.

C/C(=N\Nc1ccc(C)c(Cl)c1)c1ccncc1 [Compound W-0079341]: 17.1
COc1cc(/C(C)=N/Nc2ccc(Cl)c(Cl)c2)cc(OC)c1OC [Compound W-0079409]: 6.74
CCn1cc(-c2c(N)sc(NC(=O)c3ccccc3)c2C#N)c(C)n1 [Compound W-0020339]: 11.6
N#Cc1c(NC(=O)c2ccccc2)sc(N)c1-c1cccs1 [Compound W-0003891]: 2.56

Moving on to the next molecule.
Task: So what does the record say about IC50 for C/C(=N\Nc1ccc(F)cc1F)c1cc2ccccc2o1 [Compound W-0079399] ?
Result: 41.2
